experiment: qHTS assay for environmental chemicals that activate the Aryl hydrocarbon Receptor (AhR) signaling pathway (AID 651777); conditions: 1A2-DRE human hepatoma cells, luciferase, 24 h; stronger effect = higher value; note: % of control where 0% means no effect; nearly all actives have a fitted effect of over 15% in size
Results filed as inconclusive are left out.
Entries and their activation

MOLECULE: c1ccc2c(c1)ccc1ncccc12
activation / %: 3.95
--
MOLECULE: CCOc1ccccc1N
activation / %: -0.265
--
MOLECULE: Cc1cccc([N+](=O)[O-])c1C(=O)O
activation / %: -0.538
--
MOLECULE: NC(=O)c1ccccc1[N+](=O)[O-]
activation / %: -0.127
--
MOLECULE: ClCCl
activation / %: 0.008
--
MOLECULE: Cc1cccc2ccccc12
activation / %: -0.124
--
MOLECULE: CC1CCCO1 (stereo not drawn)
activation / %: 2.22
--
MOLECULE: O=C(O)c1ccccc1Cl
activation / %: -2.05
--
MOLECULE: CCN(Cc1ccccc1)c1ccccc1
activation / %: 0.346
--
MOLECULE: Nc1nc(CC(=O)O)cs1
activation / %: -0.467
--
MOLECULE: CCCCCCCCC/C=C/CC1CC(=O)OC1=O (stereo not drawn)
activation / %: 0.696
--
MOLECULE: CCOC(C)(C)C
activation / %: -0.13
--
MOLECULE: O=Cc1cccc(Br)c1
activation / %: 0.191
--
MOLECULE: Cc1cc(C)cc(O)c1
activation / %: -0.55
--
MOLECULE: Cc1ccccc1C(=O)O
activation / %: 0.336
--
MOLECULE: Cc1cccc(Br)c1
activation / %: 0.194
--
MOLECULE: O=C(O)c1ccccc1[N+](=O)[O-]
activation / %: -1.41
--
MOLECULE: O=[N+]([O-])c1ccccc1CCO
activation / %: 0.213
--
MOLECULE: Cc1ccc(Br)cc1
activation / %: 0.745
--
MOLECULE: NC(=O)CCCCC(N)=O
activation / %: -0.919
--
MOLECULE: CCOCCO
activation / %: -0.327
--
MOLECULE: N#CCc1ccccc1[N+](=O)[O-]
activation / %: 4.16
--
MOLECULE: CCCCC(CC)CO (stereo not drawn)
activation / %: -0.248
--
MOLECULE: C=C(C)C(N)=O
activation / %: -1.72
--
MOLECULE: CC#N
activation / %: 0.208
--
MOLECULE: Cc1nc2ccc(Cl)cc2[nH]1
activation / %: 3.58
--
MOLECULE: O=C(O)c1ccc(Cl)cc1Cl
activation / %: -0.705
--
MOLECULE: O=C(O)c1ccc(Cl)c(Cl)c1
activation / %: 1.84

---

experiment: qHTS assay for small molecule disruptors of the mitochondrial membrane potential - 1 hr assay (AID 651754); conditions: series mostly up to 92.2 µM; note: % is set by controls: 0 for no effect and ±100 for the full control effect; nearly all actives have a fitted effect of over 35% in size
Results filed as inconclusive are left out. Activity calls are given as the source filed them. The call rests on the fitted dose curve.

MOLECULE: O=C(O)CNC(=O)c1ccc([N+](=O)[O-])cc1
outcome: inactive
//
MOLECULE: CCCCC(CC)COCC1CO1 (stereo not drawn)
outcome: inactive
//
MOLECULE: O=C(Cl)c1ccccc1[N+](=O)[O-]
outcome: inactive

---

Entries and their max response
test: qHTS assay for small molecule agonists of the antioxidant response element (ARE) signaling pathway measured by Nrf2-dependant transcriptional activity - cell viability counter screen (AID 720653); settings: ARE-bla HepG2 viability, CellTiter-Glo ATP luminescence, 16 h; stronger effect = lower value; note: % is set by controls: 0 for no effect and ±100 for the full control effect
Inconclusive results are not listed.

COMPOUND: O=[N+]([O-])c1ccc(Cl)cc1Cl
max response / %: -19.5
//
COMPOUND: CC=C(Cl)Cl
max response / %: -6.27
//
COMPOUND: C=Cc1ccccc1C=C
max response / %: 4.89
//
COMPOUND: CCOc1cccc(N)c1
max response / %: -7.78
//
COMPOUND: CN(C)CCCCl
max response / %: 19.9
//
COMPOUND: CC#N
max response / %: -0.353
//
COMPOUND: Cc1cc([N+](=O)[O-])ccc1N
max response / %: -20.9
//
COMPOUND: CC(=O)CC(C)C
max response / %: 4.78
//
COMPOUND: C=CCOC(=O)CCCCCCCC
max response / %: 3.3
//
COMPOUND: Cc1ccccc1Br
max response / %: -8.12
//
COMPOUND: CCOC(=O)C(C)C(C)=O (stereo not drawn)
max response / %: -7.43
//
COMPOUND: CC/C=C1/OC(=O)c2ccccc21
max response / %: 4.48
//
COMPOUND: CCC(O)C(C)(C)C (stereo not drawn)
max response / %: -4.91
//
COMPOUND: C=C(C)C(=O)OCCCCCC
max response / %: -4.89
//
COMPOUND: C=CCCCCCC
max response / %: -7.1
//
COMPOUND: CSCCC=O
max response / %: -0.733
//
COMPOUND: CC(=O)OC(C)=O
max response / %: 5.05
//
COMPOUND: O=C(O)CNC(=O)c1ccc([N+](=O)[O-])cc1
max response / %: 1.63
//
COMPOUND: Cc1ccc2ncccc2c1
max response / %: 5.85
//
COMPOUND: CCCCCCCCC/C=C/CC1CC(=O)OC1=O (stereo not drawn)
max response / %: -4.85
//
COMPOUND: O=C(Cl)c1ccccc1[N+](=O)[O-]
max response / %: 18.8
//
COMPOUND: O=C(O)c1cc(Cl)cc(Cl)c1
max response / %: 0.662
//
COMPOUND: CCC(=O)/C=C/C1C(C)=CCCC1(C)C (stereo not drawn)
max response / %: 0.358

---

Molecular target: Tumor necrosis factor (Homo sapiens) (UniProt P01375)
Sequence (P01375 whole entry, looked up): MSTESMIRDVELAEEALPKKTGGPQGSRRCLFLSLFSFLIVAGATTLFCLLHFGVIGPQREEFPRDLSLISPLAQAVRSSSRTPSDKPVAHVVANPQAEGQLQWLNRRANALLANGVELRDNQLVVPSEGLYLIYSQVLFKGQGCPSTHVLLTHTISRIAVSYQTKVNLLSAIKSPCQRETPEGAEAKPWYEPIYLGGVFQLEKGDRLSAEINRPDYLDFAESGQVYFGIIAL
Assay: qHTS assay to identify small molecules that stimulate Tumor Necrosis Factor-alpha (TNF-alpha) secretion (AID 651757)
Conditions: Human cells, HTRF 665/615 ratio; series mostly up to 92.2 µM
Procedure: National Center for Advancing Translational Sciences [NCATS] NIH Chemical Genomics Center [NCGC] National Institutes of Environmental Health Sciences [NIEHS] National Toxicology Program [NTP] […] THP-1 cells were dispensed at 3000 cells/5ul/well in 1536-well white solid plates. […] After the assay plates were incubated at room temperature for 3 hr, the plates were measured by an EnVision plate reader.
Records with an inconclusive call do not appear. Calls of active or inactive are those of the source. Calls come from the whole dose curve; as a rule, active = well fitted curve in the direction sought with a large enough effect in the signal ratio; inconclusive = small, poorly fitted or top-dose-only effect, or a change in a side signal; inactive = no such curve, though single readings can be large or run the other way; the % refers to the signal ratio.
Possible outcomes: active, inactive

MOLECULE: Cc1cc(C)cc(O)c1
ASSIGNED_LABEL: inactive

MOLECULE: OC1CCCC1
ASSIGNED_LABEL: inactive

MOLECULE: OC/C(Br)=C(\Br)CO
ASSIGNED_LABEL: inactive

MOLECULE: NC(=O)NC(N)=O
ASSIGNED_LABEL: inactive

MOLECULE: O=C(O)c1ccc(CO)o1
ASSIGNED_LABEL: inactive

MOLECULE: Cc1cccc(C(=O)O)c1
ASSIGNED_LABEL: inactive

MOLECULE: CCCCOCCOCCSC#N
ASSIGNED_LABEL: inactive

MOLECULE: BrC/C=C/CBr
ASSIGNED_LABEL: inactive

MOLECULE: O=c1[nH][nH]c(=O)c2cc([N+](=O)[O-])ccc12
ASSIGNED_LABEL: inactive

MOLECULE: Cc1ccc2nc(-c3ccc(N)cc3)sc2c1S(=O)(=O)O
ASSIGNED_LABEL: active

MOLECULE: CCCCC(CC)CO (stereo not drawn)
ASSIGNED_LABEL: inactive

MOLECULE: C=Cc1ccccn1
ASSIGNED_LABEL: inactive

MOLECULE: CC(=O)c1ccccc1[N+](=O)[O-]
ASSIGNED_LABEL: inactive

---

test: Cellular Toxicity (caspase-3) Jurkat (AID 655); conditions: Jurkat caspase-3 activation, luminescence; at 92.2 µM (top of the series), DMSO = 0%, tamoxifen = 100%;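 note: cells exposed to compound for 16 h at 37 °C before reading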
Results filed as inconclusive are left out.
PROPERTY_NAME: caspase-3 activation (%)

MOLECULE: CC(=O)c1ccccc1[N+](=O)[O-]
UNIT_ANNOTATION: %
RECORDED_VALUE: 0.506
//
MOLECULE: CCCCC(CC)COC(=O)CCCCC(=O)OCC(CC)CCCC (centres undefined)
UNIT_ANNOTATION: %
RECORDED_VALUE: -0.708
//
MOLECULE: CCCCCCCCCCCCC1CO1 (centres undefined)
UNIT_ANNOTATION: %
RECORDED_VALUE: -0.853
//
MOLECULE: CC(C)C(C)C
UNIT_ANNOTATION: %
RECORDED_VALUE: -0.000823
//
MOLECULE: c1ccc(Nc2ccccc2)cc1
UNIT_ANNOTATION: %
RECORDED_VALUE: 1.36
//
MOLECULE: Cc1ccc2oc(=O)ccc2c1
UNIT_ANNOTATION: %
RECORDED_VALUE: 0.624
//
MOLECULE: NC(=O)c1ccccc1[N+](=O)[O-]
UNIT_ANNOTATION: %
RECORDED_VALUE: -0.0168
//
MOLECULE: OCCO
UNIT_ANNOTATION: %
RECORDED_VALUE: 1.1
//
MOLECULE: Nc1cc(S(=O)(=O)O)ccc1O
UNIT_ANNOTATION: %
RECORDED_VALUE: -0.212
//
MOLECULE: COCCOC(=O)c1ccccc1C(=O)OCCOC
UNIT_ANNOTATION: %
RECORDED_VALUE: 0.0969
//
MOLECULE: CCOc1cccc(N)c1
UNIT_ANNOTATION: %
RECORDED_VALUE: -1.1
//
MOLECULE: CCNc1ccccc1
UNIT_ANNOTATION: %
RECORDED_VALUE: 0.137
//
MOLECULE: Fc1ccccc1
UNIT_ANNOTATION: %
RECORDED_VALUE: 0.771
//
MOLECULE: CC(=O)OC(C)=O
UNIT_ANNOTATION: %
RECORDED_VALUE: -0.999
//
MOLECULE: C(=C/c1ccccc1)/c1ccccc1
UNIT_ANNOTATION: %
RECORDED_VALUE: 0.745
//
MOLECULE: O=C1OC(=O)c2cc([N+](=O)[O-])ccc21
UNIT_ANNOTATION: %
RECORDED_VALUE: -2.27
//
MOLECULE: CNC(=O)c1ccccc1
UNIT_ANNOTATION: %
RECORDED_VALUE: 0.307
//
MOLECULE: Cc1cccc([N+](=O)[O-])c1C(=O)O
UNIT_ANNOTATION: %
RECORDED_VALUE: 0.48
//
MOLECULE: CCCCCCC=O
UNIT_ANNOTATION: %
RECORDED_VALUE: 0.767
//
MOLECULE: NC=O
UNIT_ANNOTATION: %
RECORDED_VALUE: 2.21
//
MOLECULE: CC#N
UNIT_ANNOTATION: %
RECORDED_VALUE: 1.05
//
MOLECULE: CC(C)=CCC/C(C)=C/C=O
UNIT_ANNOTATION: %
RECORDED_VALUE: 0.822
//
MOLECULE: Nc1cccc([N+](=O)[O-])c1
UNIT_ANNOTATION: %
RECORDED_VALUE: 0.664
//
MOLECULE: CCOCC(=O)O
UNIT_ANNOTATION: %
RECORDED_VALUE: -1.08
//
MOLECULE: C/C=C(/C)C#N
UNIT_ANNOTATION: %
RECORDED_VALUE: 1.22
//
MOLECULE: OC(CCl)CCl
UNIT_ANNOTATION: %
RECORDED_VALUE: 0.028
//
MOLECULE: O=C(Cl)c1cccc([N+](=O)[O-])c1
UNIT_ANNOTATION: %
RECORDED_VALUE: 2.23
//
MOLECULE: Cc1ccc(Br)cc1
UNIT_ANNOTATION: %
RECORDED_VALUE: 0.635
//
MOLECULE: CSCCC=O
UNIT_ANNOTATION: %
RECORDED_VALUE: -1.33
//
MOLECULE: CCCCN(CCO)CCCC
UNIT_ANNOTATION: %
RECORDED_VALUE: -0.474
//
MOLECULE: CCCCC(=O)N(C)C
UNIT_ANNOTATION: %
RECORDED_VALUE: -0.841
//
MOLECULE: O=[N+]([O-])c1ccc2nc[nH]c2c1
UNIT_ANNOTATION: %
RECORDED_VALUE: 0.964
//
MOLECULE: O=C(O[C@@H](C(=O)O)[C@@H](OC(=O)c1ccccc1)C(=O)O)c1ccccc1
UNIT_ANNOTATION: %
RECORDED_VALUE: 1.56
//
MOLECULE: N#Cc1ccccc1
UNIT_ANNOTATION: %
RECORDED_VALUE: -1.39
